Hello, the source for this data is patent US9738660B2, in case you need it.

# test target: DYRK1A (Homo sapiens, UniProt Q13627)
# run description: Kinase Profiler, residual kinase activity
# Assay type: biochemical
# run conditions: DYRK1A; inhibitor at 500 nM; read-out: percentage of the remaining kinase activity
remaining activity at 0.5 µM vs 10%: less than gives Met; not less than gives Not met.

>  <molecule>
COC1C(N(C)C(=O)C(N)Cc2ccc(O)cc2)CC2OC1(C)n1c3ccccc3c3c4c(c5c6ccccc6n2c5c31)C(=O)NC4 (stereo not shown)

>  <test target>
DYRK1A (Homo sapiens, UniProt Q13627)

>  <label value>
Met

$$$$
>  <molecule>
COC1C(N(C)C(=O)C(N)CCC(=O)O)CC2OC1(C)n1c3ccccc3c3c4c(c5c6ccccc6n2c5c31)C(=O)NC4 (stereo not shown)

>  <test target>
DYRK1A (Homo sapiens, UniProt Q13627)

>  <label value>
Met

$$$$
>  <molecule>
COC1C(N(C)C(=O)C(N)Cc2c[nH]cn2)CC2OC1(C)n1c3ccccc3c3c4c(c5c6ccccc6n2c5c31)C(=O)NC4 (stereo not shown)

>  <test target>
DYRK1A (Homo sapiens, UniProt Q13627)

>  <label value>
Met

$$$$
>  <molecule>
COC1C(N(C)Cc2ccc(-c3ccccc3)cc2)CC2OC1(C)n1c3ccccc3c3c4c(c5c6ccccc6n2c5c31)C(=O)NC4 (stereo not shown)

>  <test target>
DYRK1A (Homo sapiens, UniProt Q13627)

>  <label value>
Not met

$$$$
>  <molecule>
COC1C(N(C)C(=O)C(N)Cc2cn(C(=O)OC(C)(C)C)c3ccccc23)CC2OC1(C)n1c3ccccc3c3c4c(c5c6ccccc6n2c5c31)C(=O)NC4 (stereo not shown)

>  <test target>
DYRK1A (Homo sapiens, UniProt Q13627)

>  <label value>
Not met

$$$$
>  <molecule>
COC1C(N(C)C(=O)C(N)CCC(=O)OC(C)(C)C)CC2OC1(C)n1c3ccccc3c3c4c(c5c6ccccc6n2c5c31)C(=O)NC4 (stereo not shown)

>  <test target>
DYRK1A (Homo sapiens, UniProt Q13627)

>  <label value>
Not met

$$$$
>  <molecule>
COC1C(N(C)C(=O)C(N)Cc2ccc(OC(C)(C)C)cc2)CC2OC1(C)n1c3ccccc3c3c4c(c5c6ccccc6n2c5c31)C(=O)NC4 (stereo not shown)

>  <test target>
DYRK1A (Homo sapiens, UniProt Q13627)

>  <label value>
Not met

$$$$
